Tested on: S. pneumoniae
Experimental details: Kill or inhibit growth/proliferation; morphology, biofilm and growth disruption (Tables 5, 6); note: test concentration or dose not given here
Format: cell-based, Streptococcus pneumoniae
Set-up: key: A: Peptide aggregates; B: Less hyphal formation; Clumps; Diffuse clumps and small polyps; F: Diffuse growth; H: Thin; I: Growth inhibition; Microcolony formation; Rippled; Small polyps; Thick; W: Halo formation on top, microlonies on bottom
Ends that are not written are not given here.

Substance: PF-446: peptide having multiple activities (chain 1 SGNEKV; chain 2 SGNEKV; Peptide with targeting and/or antimicrobial activity)
Tested on: S. pneumoniae
Organism, effect: S. pneumoniae (H)
--
Substance: PF-414: peptide having multiple activities (LLNKKLE; Peptide with targeting and/or antimicrobial activity)
Tested on: S. pneumoniae
Organism, effect: S. pneumoniae (H)
--
Substance: PF-356: peptide having multiple activities (chain 1 VSIKIGAIVIGMIGLMELLTE; chain 2 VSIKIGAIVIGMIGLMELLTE; Peptide with targeting and/or antimicrobial activity)
Tested on: S. pneumoniae
Organism, effect: S. pneumoniae (R)
--
Substance: PF-430: peptide having multiple activities (AVVCGYLAYTATS; Peptide with targeting and/or antimicrobial activity)
Tested on: S. pneumoniae
Organism, effect: S. pneumoniae (M)
--
Substance: PF-607: peptide having multiple activities (YIESDPRKFDYIFGAIRDH; Peptide with targeting and/or antimicrobial activity)
Tested on: S. pneumoniae
Organism, effect: S. pneumoniae (R)
--
Substance: PF-609: peptide having multiple activities (TEIKLDNNEYLVLNLDDILGILK; Peptide with targeting and/or antimicrobial activity)
Tested on: S. pneumoniae
Organism, effect: S. pneumoniae (R)
--
Substance: PF-465: peptide having multiple activities (chain 1 KPVGKALEEIADGKIEPVVPKEYLG; chain 2 KPVGKALEEIADGKIEPVVPKEYLG; Peptide with targeting and/or antimicrobial activity)
Tested on: S. pneumoniae
Organism, effect: S. pneumoniae (H)
--
Substance: PF-140: peptide having multiple activities (FHRRVIRASEWALTTRSFSTPLRSAAR; Peptide with targeting and/or antimicrobial activity)
Tested on: S. pneumoniae
Organism, effect: S. pneumoniae (D)
--
Substance: PF-144: peptide having multiple activities (RSGQPVGRPSRRAWLR; Peptide with targeting and/or antimicrobial activity)
Tested on: S. pneumoniae
Organism, effect: S. pneumoniae (H)
--
Substance: PF-577: peptide having multiple activities (chain 1 PFETRESFRVPVIGILGGWDYFMHP; chain 2 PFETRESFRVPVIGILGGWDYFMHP; Peptide with targeting and/or antimicrobial activity)
Tested on: S. pneumoniae
Organism, effect: S. pneumoniae (R)
--
Substance: PF-629: peptide having multiple activities (chain 1 GLAAIATVFALY; chain 2 GLAAIATVFALY; Peptide with targeting and/or antimicrobial activity)
Tested on: S. pneumoniae
Organism, effect: S. pneumoniae (M)
--
Substance: PF-540: peptide having multiple activities (chain 1 KSILILIKVIFIGQTTIIL; chain 2 KSILILIKVIFIGQTTIIL; Peptide with targeting and/or antimicrobial activity)
Tested on: S. pneumoniae
Organism, effect: S. pneumoniae (R)
--
Substance: PF-513: peptide having multiple activities (chain 1 SNGVGLGVGIGSGIRF-NH2; chain 2 SNGVGLGVGIGSGIRF-NH2)
Tested on: S. pneumoniae
Organism, effect: S. pneumoniae (M)
--
Substance: PF-536 (MEPIPHIMIIANQIGIIIEKA; Peptide with targeting and/or antimicrobial activity)
Tested on: S. pneumoniae
Organism, effect: S. pneumoniae (M)
--
Substance: PF-596: peptide having multiple activities (SKMWDKILTILILILELIRELIKL; Peptide with targeting and/or antimicrobial activity)
Tested on: S. pneumoniae
Organism, effect: S. pneumoniae (D)
--
Substance: PF-440: peptide having multiple activities (chain 1 MFIISPDLFNIAVILYILFFIHDILLLILS; chain 2 MFIISPDLFNIAVILYILFFIHDILLLILS; Peptide with targeting and/or antimicrobial activity)
Tested on: S. pneumoniae
Organism, effect: S. pneumoniae (R)
--
Substance: PF-433: peptide having multiple activities (MRKEFHNVLSSGQLLADKRPARDYNRK; Peptide with targeting and/or antimicrobial activity)
Tested on: S. pneumoniae
Organism, effect: S. pneumoniae (H)
--
Substance: PF-467: peptide having multiple activities (chain 1 YYKDYFKEI; chain 2 YYKDYFKEI; Peptide with targeting and/or antimicrobial activity)
Tested on: S. pneumoniae
Organism, effect: S. pneumoniae (H)

###

Test system: microorganisms (e.g., bacteria, yeasts, fungi)
Experimental details: Targeting peptide binding to target microorganisms (Table 3)
Condition label: peptide binding in aqueous buffers varied by peptide solubility; preferably 1x PBS
Value kind: Target(s) (microorganisms bound by the targeting peptide)

Substance: PF-651 (chain 1 PRWPTGAGRHR; chain 2 PRWPTGAGRHR; Peptide with targeting and/or antimicrobial activity)
Tested on: microorganisms (e.g., bacteria, yeasts, fungi)
Measurement: Mycobacteria spp

Substance: PF-703 (MTTVDNIVGLVIAVALMAFLFAALLFPEKF; Peptide with targeting and/or antimicrobial activity)
Tested on: microorganisms (e.g., bacteria, yeasts, fungi)
Measurement: Mycobacteria spp

Substance: PF-791 (IFLTTQNTDYSEHNAA; Peptide with targeting and/or antimicrobial activity)
Tested on: microorganisms (e.g., bacteria, yeasts, fungi)
Measurement: S. mutans

Substance: PF-701 (PRGAQSGHG; Peptide with targeting and/or antimicrobial activity)
Tested on: microorganisms (e.g., bacteria, yeasts, fungi)
Measurement: S. mutans

Substance: PF-658 (chain 1 PTTPPPTTPPEIPTGGTVIST; chain 2 PTTPPPTTPPEIPTGGTVIST; Peptide with targeting and/or antimicrobial activity)
Tested on: microorganisms (e.g., bacteria, yeasts, fungi)
Measurement: Mycobacteria spp

Substance: PF-654 (chain 1 LSGRLAGRR; chain 2 LSGRLAGRR; Peptide with targeting and/or antimicrobial activity)
Tested on: microorganisms (e.g., bacteria, yeasts, fungi)
Measurement: Mycobacteria spp

###

Test system: microorganisms (e.g., bacteria, yeasts, fungi)
Experimental details: Targeting peptide binding to target microorganisms (Table 3)
Condition label: microorganism the targeting peptide binds; binding in aqueous buffers varied by peptide solubility, preferably 1x PBS
Value kind: Target(s)

Substance: 1T-256 (KGKSLMPLLKQINQWGKLYL; Peptide with targeting and/or antimicrobial activity) [Peptide 1T-256]
Value kind: Target(s)
Measurement: S. sanguinis

Substance: 1T-237 (EDPVPNHFTLRRNKKEKPSKS; Peptide with targeting and/or antimicrobial activity) [Peptide 1T-237]
Value kind: Target(s)
Measurement: S. sanguinis

Substance: 1T-215 (VCFKDISVFLSPFRGQEVLFCGKAKHSLIYVIGT; Peptide with targeting and/or antimicrobial activity) [Peptide 1T-215]
Value kind: Target(s)
Measurement: S. sanguinis

###

System: microorganisms
Experimental details: Peptides having multiple activities (targeting/binding, antimicrobial, growth or phenotype altering)

Substance: PF-757: peptide having multiple activities (PQAISSVQQNA; Peptide with targeting and/or antimicrobial activity)
Activities: G B
--
Substance: PF-634: peptide having multiple activities (chain 1 MPKARPVNHNKKKSKITIKSNFTLFYMFNP; chain 2 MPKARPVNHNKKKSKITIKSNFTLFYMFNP; Peptide with targeting and/or antimicrobial activity)
Activities: G B
--
Substance: PF-186: peptide having multiple activities (DADKNLSLERDRFAWRVAAP; Peptide with targeting and/or antimicrobial activity)
Activities: G B
--
Substance: PF-C137: peptide having multiple activities (QRMYWFKRGFETGDFSAGDTFAELK; Peptide with targeting and/or antimicrobial activity)
Activities: G B
--
Substance: PF-363: peptide having multiple activities (chain 1 SMLSVTVMCLMHASVAANQAMEKKV; chain 2 SMLSVTVMCLMHASVAANQAMEKKV; Peptide with targeting and/or antimicrobial activity)
Activities: G B
--
Substance: PF-026: peptide having multiple activities (chain 1 SIHFIN; chain 2 SIHFIN; Peptide with targeting and/or antimicrobial activity)
Activities: G B
--
Substance: MIRIRSPTKKKLNRNSISDWKSNTSGRFFY [PF-283]
Activities: G B M
--
Substance: PF-612: peptide having multiple activities (GTTLKYGLERQLKIDIHPEITIINLNGGADEFAKL; Peptide with targeting and/or antimicrobial activity)
Activities: G B
--
Substance: MIHLTKQNTMEALHFIKQFYDMFFILNFNV [PF-040]
Activities: G B
--
Substance: MRFGSLALVAYDSAIKHSWPRPSSVRRLRM [PF-672]
Activities: G B M
--
Substance: PF-609: peptide having multiple activities (TEIKLDNNEYLVLNLDDILGILK; Peptide with targeting and/or antimicrobial activity)
Activities: G B
--
Substance: PF-629: peptide having multiple activities (chain 1 GLAAIATVFALY; chain 2 GLAAIATVFALY; Peptide with targeting and/or antimicrobial activity)
Activities: G B

###

Tested on: MRSA
Experimental details: Kill or inhibit growth/proliferation; morphology, biofilm and growth disruption (Tables 5, 6); note: test concentration or dose not given here
Type: cell-based, Methicillin-resistant Staphylococcus aureus
Parameters: key: A: Peptide aggregates; B: Less hyphal formation; Clumps; Diffuse clumps and small polyps; F: Diffuse growth; H: Thin; I: Growth inhibition; Microcolony formation; Rippled; Small polyps; Thick; W: Halo formation on top, microlonies on bottom
Value kind: Organism, effect

Substance: PF-439: peptide having multiple activities (chain 1 RVLVLKKFHGIMDGNRNVAVFFVGQ; chain 2 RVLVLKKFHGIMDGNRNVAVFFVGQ; Peptide with targeting and/or antimicrobial activity)
Tested on: MRSA
Measurement: MRSA (M)
--
Substance: PF-637: peptide having multiple activities (chain 1 SRIKQDARSVRKYDRIGIFFYSFKSA; chain 2 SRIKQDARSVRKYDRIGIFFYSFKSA; Peptide with targeting and/or antimicrobial activity)
Tested on: MRSA
Measurement: MRSA (M)
--
Substance: ALCSVIKAIELGIINVHLQ [PF-366]
Tested on: MRSA
Measurement: MRSA (D)
--
Substance: PF-474: peptide having multiple activities (chain 1 MHRNLVLVKMEPIPHIMIIANQIGIIIEKA; chain 2 MHRNLVLVKMEPIPHIMIIANQIGIIIEKA; Peptide with targeting and/or antimicrobial activity)
Tested on: MRSA
Measurement: MRSA (D)
